Below is a list of entries, each paired with its recorded cell proliferation (luminescence) % UTC value.
Test system: SCC25 cells
Experiment: Cell proliferation assay in SCC25 cells, CellTiter-Glo (Example 25)
Format: cell-based, human
Conditions: 0.2 μM, free uptake, 144 hours
State the answer as a number, implicitly in % UTC.

- substance: "1076453 (GTAATATTGCAATCTG; 3-10-3 cEt gapmer, further chemistry not given here) [compound 1076453]"
  unit symbol: "% UTC"
  cell proliferation (luminescence) % UTC: 40
- substance: "1197270 (TTAAAGTGTATGTCAG; cEt gapmer with 2'-OMe nucleoside, phosphorothioate, further chemistry not given here) [compound 1197270]"
  unit symbol: "% UTC"
  cell proliferation (luminescence) % UTC: 40
- substance: "1198623 (CTAAGTAAGGTTTCCC; modified gapmer, further chemistry not given here) [compound 1198623]"
  unit symbol: "% UTC"
  cell proliferation (luminescence) % UTC: 55
- substance: "1198872 (TGTATGTCAGAAGAGT; chemically modified gapmer, further chemistry not given here) [compound 1198872]"
  unit symbol: "% UTC"
  cell proliferation (luminescence) % UTC: 37
- substance: "1198831 (CACTTTTACATTAGGA; chemically modified gapmer, further chemistry not given here) [compound 1198831]"
  unit symbol: "% UTC"
  cell proliferation (luminescence) % UTC: 54

INPUT: Recall the recorded cell proliferation (luminescence) % UTC for CGCCGATAAGGTACAC (cEt gapmer, phosphorothioate backbone, further chemistry not given here) [ION 792169, reference compound] with SCC25 cells and state it.
OUTPUT: 104

---

Test system: Yap1 mRNA
Test: Antisense inhibition of human Yap1 in A-431 cells by cEt gapmers, single dose (Example 2, RTS4814)
Format: cell-based
Details: Table 22; Yap1 mRNA as percent of untreated control; 3-10-3 cEt gapmers; single dose
Strand notation (5' to 3'): a small letter for the sugar, then the base; units joined by * are phosphorothioate-linked, units joined directly phosphodiester-linked; [ ] holds rarer units or linkages, { } end groups; capitals alone tell only the bases. k = constrained ethyl (cEt); [5mC] = 5-methylcytosine; d = 2'-deoxy (DNA)
quantity name: YAP1 (% UTC)
Respond with the bare value in % UTC.

Example substances with recorded YAP1 (% UTC):
- substance: "1075976 (kA*kT*kT*dA*dA*dA*dA*dG*dT*d[5mC]*dG*dG*dG*k[5mC]*k[5mC]*kA; antisense) [Compound 1075976]"
  YAP1 (% UTC): 92
- substance: "1074696 (antisense kG*kT*k[5mC]*d[5mC]*d[5mC]*d[5mC]*d[5mC]*dT*dA*dA*dA*dT*d[5mC]*kT*kT*k[5mC]) [Compound 1074696]"
  YAP1 (% UTC): 38
- substance: "1075208 (antisense kA*k[5mC]*kT*dG*dA*dA*d[5mC]*dA*d[5mC]*dA*dG*dG*d[5mC]*kT*kA*k[5mC]) [Compound 1075208]"
  YAP1 (% UTC): 24
- substance: "1076264 (kA*k[5mC]*k[5mC]*d[5mC]*dA*dA*dT*dA*dA*d[5mC]*d[5mC]*dA*dA*kG*kT*kG; antisense) [Compound 1076264]"
  YAP1 (% UTC): 40
- substance: "1074568 (antisense kG*kA*kA*d[5mC]*d[5mC]*dT*dA*d[5mC]*dT*d[5mC]*dA*d[5mC]*dT*kG*kA*kA) [Compound 1074568]"
  YAP1 (% UTC): 12

Okay, next one:
INPUT: Recorded YAP1 (% UTC) for 1076520 (antisense kA*kA*kT*dT*dA*dT*dA*dT*dG*d[5mC]*dA*dG*d[5mC]*kA*kG*k[5mC]) [Compound 1076520] , please?
OUTPUT: 21

---

System: Yap1 mRNA
Experiment: Dose-dependent inhibition of human Yap1 in SNU-449 cells (Example 9, RTS36584)
Assay type: cell-based
Details: 31.3 nM, free uptake, approximately 48 hours
Strand notation (5' to 3'): a small letter for the sugar, then the base; units joined by * are phosphorothioate-linked, units joined directly phosphodiester-linked; [ ] holds rarer units or linkages, { } end groups; capitals alone tell only the bases. e = 2'-O-(2-methoxyethyl) (MOE); k = constrained ethyl (cEt); [5mC] = 5-methylcytosine; d = 2'-deoxy (DNA); m = 2'-O-methyl
quantity name: % UTC (Yap1 mRNA)
Answer format: value, then unit.

Before answering, review these 5 worked examples.
- substance: "1076453 (GTAATATTGCAATCTG; 3-10-3 cEt gapmer, further chemistry not given here) [compound 1076453]"
  % UTC (Yap1 mRNA): "67 % UTC"
- substance: "1197312 (kT*kG*kT*dA*mU*dG*dT*d[5mC]*dA*dG*dA*dA*dG*kA*kG*kT; antisense) [compound 1197312]"
  % UTC (Yap1 mRNA): "101 % UTC"
- substance: "1074756 (kG*k[5mC]*kA*d[5mC]*dT*dT*dT*dT*dA*d[5mC]*dA*dT*dT*kA*kG*kG) [compound 1074756]"
  % UTC (Yap1 mRNA): "42 % UTC"
- substance: "1198610 (kT*kG*kT*dA*dT*dG*dT*d[5mC]*dA*dG*dA*dA*kG*kA*kG*eT; antisense) [compound 1198610]"
  % UTC (Yap1 mRNA): "69 % UTC"
- substance: "1198285 (kA*kT*kT*dG*dT*d[5mC]*dT*d[5mC]*dA*dT*dG*d[5mC]*k[5mC]*eT*kT*eA; antisense) [compound 1198285]"
  % UTC (Yap1 mRNA): "67 % UTC"

# input for lookup
INPUT: Request the reported % UTC (Yap1 mRNA) associated with 1198550 (kA*kT*kA*dT*dG*dG*dA*dA*dA*dT*dT*dG*kT*k[5mC]*kT*e[5mC]) [compound 1198550]
OUTPUT: 73 % UTC

---

Tested on: Yap1 mRNA
Test: Yap1 mRNA in SCC25 cells, RNA analysis (Example 25)
Type: cell-based, human
Settings: 1 μM, free uptake, 48 hours, RTS4814, normalized to actin-beta
Description: Modified oligonucleotides described in the studies above were tested at various doses in squamous cell carcinoma cell SCC25. […] Cultured SCC25 cells at a density of 5,000 cells per well were treated using free uptake with modified oligonucleotides diluted to concentrations described in the tables below. After approximately 48 hours, Yap1 mRNA levels were measured as previously described using the Human Yap1 primer-probe set RTS4814. […]
quantity name: Yap1 mRNA, % UTC
Please state the value followed by its unit.

Worked cases, answers included:
- substance: "958499 (ATTAGAGTATGTGGCA; 3-10-3 cEt gapmer, further chemistry not given here) [compound 958499]"
  Yap1 mRNA, % UTC: "10 % UTC"
- substance: "1198623 (CTAAGTAAGGTTTCCC; modified gapmer, further chemistry not given here) [compound 1198623]"
  Yap1 mRNA, % UTC: "15 % UTC"
- substance: "1198728 (TATTAGAGTATGTGGC; modified gapmer, further chemistry not given here) [compound 1198728]"
  Yap1 mRNA, % UTC: "15 % UTC"
- substance: "1198605 (GTAATATTGCAATCTG; modified gapmer, further chemistry not given here) [compound 1198605]"
  Yap1 mRNA, % UTC: "10 % UTC"
- substance: "1197270 (TTAAAGTGTATGTCAG; cEt gapmer with 2'-OMe nucleoside, phosphorothioate, further chemistry not given here) [compound 1197270]"
  Yap1 mRNA, % UTC: "12 % UTC"

With those in mind, consider the next substance.
INPUT: So what does the record say about Yap1 mRNA, % UTC for 1198440 (AAGTGTATGTCAGAAG; cEt, 2'-MOE, 5-methylcytosine, phosphorothioate modifications, further chemistry not given here) [compound 1198440] ?
OUTPUT: 5 % UTC

---

System: Yap1 mRNA
Experiment: Dose-dependent inhibition of human Yap1 in A-431 cells (Example 8, 10,000 cells per well, RTS4814)
Assay type: cell-based
Conditions: 125.0 nM; A-431 cells
Procedure: Modified oligonucleotides described in the studies above were tested at various doses in A-431 cells. […] After approximately 48 hours, Yap1 mRNA levels were measured as previously described using the Human Yap1 primer-probe set RTS4814. Yap1 mRNA levels were normalized to total RNA content, as measured by RIBOGREEN®. […] IC50s were calculated using a linear regression on a log/linear plot of the data in excel.
Strand notation (5' to 3'): a small letter for the sugar, then the base; units joined by * are phosphorothioate-linked, units joined directly phosphodiester-linked; [ ] holds rarer units or linkages, { } end groups; capitals alone tell only the bases. k = constrained ethyl (cEt); [5mC] = 5-methylcytosine; d = 2'-deoxy (DNA)
If the reported % UTC (Yap1 mRNA) equals or exceeds 20 % UTC, assign rule met. If not, assign rule not met.

These solved cases illustrate the format of a correct answer.
- substance: "1074229 (antisense kG*kA*kA*dG*dA*d[5mC]*dT*dG*dT*d[5mC]*dG*dA*dA*kG*kA*kT) [compound 1074229]"
  classification: "rule met"
- substance: "1074678 (antisense kT*kA*kA*dT*d[5mC]*dT*dG*dT*dG*dG*d[5mC]*dT*dA*k[5mC]*kT*kG) [compound 1074678]"
  classification: "rule met"
- substance: "1075061 (antisense k[5mC]*k[5mC]*kT*dT*dA*dT*dA*d[5mC]*dT*dT*dT*dT*dA*kG*k[5mC]*k[5mC]) [compound 1075061]"
  classification: "rule met"

INPUT: Quick check: does 1074679 (antisense kT*k[5mC]*kT*dT*dA*dA*dT*d[5mC]*dT*dG*dT*dG*dG*k[5mC]*kT*kA) [compound 1074679] have % UTC (Yap1 mRNA) greater than or equal to 20 % UTC?
OUTPUT: rule not met

INPUT: Request: 1075222 (kG*kT*kA*dT*dT*dT*dG*dG*dA*d[5mC]*dA*dA*d[5mC]*kT*k[5mC]*kT; antisense) [compound 1075222]
OUTPUT: rule met

INPUT: One more substance: 1075990 (k[5mC]*kG*kT*dT*dA*dT*dT*dA*dT*dG*d[5mC]*dA*dG*k[5mC]*kA*kA; antisense) [compound 1075990]
OUTPUT: rule not met
